test: Human liver microsome stability; conditions: human, liver microsomes
propertyMeasured: half-life at 2.083 h, 3 µM (h)
Quick note: give the figure in h, leave out the unit.

### Prompt Given the entry C#CCCCCCCCCCCCCCCSCCCOP(=O)(O)CO[C@H](C)Cn1cnc2c(N)ncnc21 [15b] , report its measured half-life at 2.083 h, 3 µM.
### Response 1.6

* * *

assay: Mouse plasma stability; assay type: in vitro ADME; settings: male, BALB/C, mouse, plasma, relative percent remaining at 240 min
propertyMeasured: remaining at 4 h, 3 μM (%)
Entry rule: numbers only, all in %.

compound	unitsLabel	observed
C[C@H](Cn1cnc2c(N)ncnc21)OCP(=O)(O)OCCCSCCCCCCCCCCCCC1CCCCC1.N [16h]	%	71

### Prompt Need remaining at 4 h, 3 μM, item CCCCCCCCCCCCCCCCSCCCOP(=O)(O)CO[C@H](C)Cn1cnc2c(N)ncnc21.N
### Response 95

* * *

experiment: Mouse plasma pharmacokinetics after oral dose; assay type: in vivo, male C57BL/6 mice; conditions: male, C57BL/6, mouse, plasma, po; p.o. 10 mg/kg, 1 h; read-out: mean prodrug concentration in plasma
propertyMeasured: concentration at 1 h
Mention the unit after the number when you answer.

Reference set, count: 2
compound	observed
C[C@H](Cn1cnc2c(N)ncnc21)OCP(=O)(O)OCCCSCCCCCCCCCCCCC1CCCCC1.N [16h]	140 ng/mL
C[C@H](Cn1cnc2c(N)ncnc21)OCP(=O)(O)OCCCSCCCCCCCCCCCCc1ccc(F)cc1.N [16g]	58.6 ng/mL

### Prompt Give the measured concentration at 1 h of CCCCCCCCCCCCCCCCSCCCOP(=O)(O)CO[C@H](C)Cn1cnc2c(N)ncnc21.N .
### Response 73.3 ng/mL

* * *

assay: Mouse plasma pharmacokinetics after intravenous dose; type: in vivo, male C57BL/6 mice; conditions: male, C57BL/6, mouse, iv, i.v. 3 mg/kg, 6 h, read-out: mean prodrug concentration in plasma
The entries below come with measured concentration at 6 h values attached.
# value in ng/mL; strip the unit string

molecule	propertyMeasured	unitsLabel	observed
CCCCCCCCCCCCCCCCSCCCOP(=O)(O)CO[C@H](C)Cn1cnc2c(N)ncnc21.N	concentration at 6 h	ng/mL	3.41
C[C@H](Cn1cnc2c(N)ncnc21)OCP(=O)(O)OCCCSCCCCCCCCCCCCc1ccc(F)cc1.N [16g]	concentration at 6 h	ng/mL	7.5

### Prompt Please give the measured concentration at 6 h for this molecule: C[C@H](Cn1cnc2c(N)ncnc21)OCP(=O)(O)OCCCSCCCCCCCCCCCCC1CCCCC1.N [16h]
### Response 3.65

* * *

This section presents compounds with their documented mean prodrug concentration in HepaRG cells values.
system: HepaRG cells; assay: HepaRG cellular uptake; details: 20 µM, 1 h

compound	observed
CCCCCCCCCCCCCCCCOCCCOP(=O)(O)CO[C@H](C)Cn1cnc2c(N)ncnc21	311.46 ng/mL
C[C@H](Cn1cnc2c(N)ncnc21)OCP(=O)(O)OCCCOCCCCCCCCCCCCCCCC(F)(F)F.N	180.34 ng/mL
C[C@H](Cn1cnc2c(N)ncnc21)OCP(=O)(O)OCCCSCCCCCCCCCCCCC1CCCCC1.N [16h]	911.53 ng/mL
C[C@H](Cn1cnc2c(N)ncnc21)OCP(=O)(O)OCCCSCCCCCCCCCCCCC#CC(C)(C)C.N [15e]	211.84 ng/mL
C[C@H](Cn1cnc2c(N)ncnc21)OCP(=O)(O)OCCCSCCCCCCCCCCCCCCC(C)(C)C.N [16e]	984.12 ng/mL

### Prompt Item under review: CCCCCCCCCCCCCCCCSCCCOP(=O)(O)CO[C@H](C)Cn1cnc2c(N)ncnc21.N . Reported mean prodrug concentration in HepaRG cells?
### Response 530.17 ng/mL

### Prompt Also need C[C@H](Cn1cnc2c(N)ncnc21)OCP(=O)(O)OCCCSCCCCCCCCCCCCc1ccc(F)cc1.N [16g] , thanks.
### Response 162.75 ng/mL
